Each entry below carries its recorded IC50.
system: A549; assay: Antiproliferative activity against human A549 cells assessed as reduction in cell viability after 48 hrs by SRB assay; format: functional, cell-based; details: A549, 48 h
Quick reminder: number only, in µM, skip the unit.

CCNC(=O)c1cccc(CN(C(=O)CCCCCC(=O)NO)c2ccc(OC)cc2)c1 2.13

Note: attention shifts to another entry.
Dear colleague, I am looking for the recorded IC50 of the following compound: `COc1ccc(N(Cc2cccc(C(=O)NCCc3ccc(F)cc3)c2)C(=O)CCCCCC(=O)NO)cc1`
4.05

====

species on record: Homo sapiens; conditions: at 0.5 µM
Description: Inhibition of HDAC (unknown origin) nuclear extract at 0.5 uM relative to control
READOUT: inhibition (%)
Quick reminder: number only, in %, skip the unit.

Examples with answers:
COc1ccc(N(Cc2cccc(C(=O)NCCc3ccc(F)cc3)c2)C(=O)CCCCCC(=O)NO)cc1 53
COc1ccccc1N(Cc1cccc(NC(=O)Cc2ccccc2)c1)C(=O)CCCCCC(=O)NO 37
COc1ccccc1N(Cc1cccc(C(=O)NCCCCc2ccccc2)c1)C(=O)CCCCCC(=O)NO 15
COc1ccccc1N(Cc1cccc(C(=O)NCCCCCc2ccccc2)c1)C(=O)CCCCCC(=O)NO 16
COc1ccccc1N(Cc1cccc(C(=O)NCCc2ccccc2)c1)C(=O)CCCCCC(=O)NO 38

Dear colleague, I am looking for the recorded inhibition of the following compound: `CCN(CC)C(=O)c1cccc(CN(C(=O)CCCCCC(=O)NO)c2ccccc2OC)c1`
20

Dear colleague, I am looking for the recorded inhibition of the following compound: `CCNC(=O)c1cccc(CN(C(=O)CCCCCC(=O)NO)c2ccccc2OC)c1`
20

Dear colleague, I am looking for the recorded inhibition of the following compound: `COc1ccccc1N(Cc1cccc(C(=O)NCCc2ccc(Cl)cc2)c1)C(=O)CCCCCC(=O)NO`
36

Dear colleague, I am looking for the recorded inhibition of the following compound: `COc1ccccc1N(Cc1cccc(C(=O)NCCCCCCc2ccccc2)c1)C(=O)CCCCCC(=O)NO`
4
